Cited source: PubChem BioAssay (NCI)

Entries below carry reported GI50 on CAKI-1 renal.
recorded_endpoint: GI50

{"compound": "O=[N+]([O-])/C=C\\c1ccc2c(c1)OCO2", "target_system": "CAKI-1 renal", "experimental_value": "1.69 µM"}
{"compound": "NC(N)=N/N=C/c1c(-c2cc(Cl)sc2Cl)nc2n1CCS2", "target_system": "CAKI-1 renal", "experimental_value": "12.8 µM"}
{"compound": "CC1=CC[C@@H]2C(C)(C)[C@@H](O)CC[C@@]2(C)[C@@H]1COc1ccc2ccc(=O)oc2c1", "target_system": "CAKI-1 renal", "experimental_value": "4.11 µM"}
{"compound": "NCCCCCCNc1cc(-c2cccc(OC(F)(F)F)c2)nc2ccc(N3CCCC3)cc12", "target_system": "CAKI-1 renal", "experimental_value": "1.72 µM"}
{"compound": "O=C1C=C(c2cc(Br)c(O)c(Br)c2)/C(=C/c2cc(Br)c(O)c(Br)c2)O1", "target_system": "CAKI-1 renal", "experimental_value": "34.3 µM"}
{"compound": "Nc1ccc2c(c1)[O][Sn]([c]1ccccc1)([c]1ccccc1)[O]C2=O", "target_system": "CAKI-1 renal", "experimental_value": "4.89 µM"}
{"compound": "COc1ccc(-c2cn3ccnc3c(-c3ccc4ncn(C5CCCCC5)c4c3)n2)cc1", "target_system": "CAKI-1 renal", "experimental_value": "0.757 µM"}
{"compound": "CC(C)(C)C([O-])=C1C(=O)c2ccccc2C1=O.CC(C)(C)C([O-])=C1C(=O)c2ccccc2C1=O.CC[O-].CC[O-].[Ti+4]", "target_system": "CAKI-1 renal", "experimental_value": "28 µM"}
{"compound": "C=C(CNCCO)[C@@H]1CC[C@]2(CO)CC[C@]3(C)[C@H](CC[C@@H]4[C@@]5(C)CCC(NCCc6ccc(O)cc6)C(C)(C)[C@@H]5CC[C@]43C)[C@@H]12 (some centres not stated)", "target_system": "CAKI-1 renal", "experimental_value": "1.62 µM"}
{"compound": "C=C1C(=O)O[C@H]2[C@H]1CC/C(COC(=O)c1ccc(C(=O)O)s1)=C\\CC[C@@]1(C)O[C@@H]21", "target_system": "CAKI-1 renal", "experimental_value": "1.71 µM"}
{"compound": "Cc1ccc(-c2cc3nc(-c4ccccc4)nc(C(Cl)Cl)n3n2)cc1", "target_system": "CAKI-1 renal", "experimental_value": "0.668 µM"}
{"compound": "CC/C=C\\C[C@H](O)C/C=C1/C(=O)C=C[C@@H]1C/C=C\\CCCC(N)=O", "target_system": "CAKI-1 renal", "experimental_value": "1.62 µM"}
{"compound": "O=c1c(OC/C(=N/O)c2ccccc2)c(-c2ccccc2)oc2ccccc12", "target_system": "CAKI-1 renal", "experimental_value": "9.52 µM"}
{"compound": "CCc1ccc(C2=C(O)C(=O)C(c3ccc(CC)cc3)=C(O)C2=O)cc1", "target_system": "CAKI-1 renal", "experimental_value": "1.92 µM"}
{"compound": "CCN(CC)CC(C)Nc1ccc(C)c2sc3ccccc3c(=O)c12 (configuration not stated)", "target_system": "CAKI-1 renal", "experimental_value": "3.04 µM"}
{"compound": "CCC(=O)N1C/C(=C/c2ccc(OC)cc2)C(=O)/C(=C/c2ccc(OC)cc2)C1", "target_system": "CAKI-1 renal", "experimental_value": "2.74 µM"}
{"compound": "CCCCS(=N)(=O)CC[C@H](N)C(=O)O (some centres not stated)", "target_system": "CAKI-1 renal", "experimental_value": "> 1080 µM"}
